Provide the recorded EC50 for the entries that follow.
Target: human APJ receptor (Homo sapiens, UniProt P35414)
Construct: expressed in transfected cells
Sequence (P35414 1-380): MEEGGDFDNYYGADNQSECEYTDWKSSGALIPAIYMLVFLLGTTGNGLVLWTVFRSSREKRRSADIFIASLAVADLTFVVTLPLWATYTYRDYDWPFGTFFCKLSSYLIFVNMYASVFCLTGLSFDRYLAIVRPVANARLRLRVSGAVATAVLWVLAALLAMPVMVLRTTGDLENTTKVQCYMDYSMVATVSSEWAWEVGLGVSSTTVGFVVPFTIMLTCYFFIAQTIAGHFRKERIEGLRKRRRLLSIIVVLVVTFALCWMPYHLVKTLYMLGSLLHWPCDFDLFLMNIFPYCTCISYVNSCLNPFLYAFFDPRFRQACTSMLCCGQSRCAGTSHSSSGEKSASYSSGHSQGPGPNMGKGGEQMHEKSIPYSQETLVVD
Experiment: Intracellular cAMP accumulation assay (APJ hcAMP, HTRF)
Assay type: cell-based
Conditions: Table 1; HEK293 cells stably expressing human APJ receptor; inhibition of forskolin-mediated cAMP production; read-out: APJ hcAMP EC50

Need EC50, item CCC[C@@H](NC(=O)c1ccc(-c2cc(Cl)ccc2-c2nc3ncncc3[nH]2)c(C(=O)O)c1)c1ccccc1 [Example 29] 10 to 100 nM

Item COC[C@@H](NC(=O)c1ccc(-c2cc(Cl)ccc2-c2nc3cc(OC)ccc3[nH]2)c(C(=O)O)c1)c1ccccc1 [Example 12] has what recorded EC50? < 10 nM

Recorded EC50 for CCC[C@@H](NC(=O)c1ccc(-c2cc(Cl)ccc2-c2nc3cc(CC(F)(F)F)ccc3[nH]2)c(C(=O)O)c1)c1ccccc1 [Example 16] , please? < 10 nM

Please look up its EC50: CCC[C@H](NC(=O)c1ccc(-c2c(Cl)cccc2-c2nc3cc(Cl)c(F)cc3[nH]2)c(C(=O)O)c1)c1ccc(Cl)cc1OC (single isomer, unassigned) [Example 200] < 10 nM

Recorded EC50 for CCCC(NC(=O)c1ccc(-c2cc(Cl)ccc2-c2nc3ccccc3[nH]2)c(C(=O)O)c1)c1ccc(F)cc1 (single isomer, unassigned) [Example 215] , please? 101 to 500 nM

Returns the measured EC50 for the input compound. Input: CCC[C@@H](NC(=O)c1ccc(-c2cc(Cl)ccc2-c2nc3cc(OC(F)(F)F)ccc3[nH]2)c(C(=O)O)c1)c1ccccc1 [Example 22] 10 to 100 nM
